Target: full length active recombinant SYK enzyme (Homo sapiens, UniProt P43405)
Construct: full length active recombinant SYK enzyme (Millipore, Calif.); purchased Millipore
Assay: Inhibition of Syk tyrosine phosphorylation activity (LANCE TR-FRET kinase assay)
Type: biochemical
Details: 1 nM active SYK enzyme, 550 nM SYK-substrate, 100 μM ATP, 1 hour at room temperature
pIC50: −log10 of the molar value.
observation-type: pIC50

NC(=O)c1nnc(N[C@@H]2CCCC[C@@H]2N)nc1Nc1ccc(-n2cncn2)cc1 :: 7.00 to 8.00
CC[C@@H](Nc1nnc(C(N)=O)c(Nc2ccc3cn(C)nc3c2)n1)C(N)=O :: 8.00 to 9.00
CC[C@@H](Nc1nnc(C(N)=O)c(Nc2cncs2)n1)C(N)=O :: 6.00 to 7.00
CC(C)C[C@@H](Nc1nnc(C(N)=O)c(Nc2cccc3c2cnn3C)n1)C(N)=O :: 7.00 to 8.00

Alright, here's another compound for you.
q: Look up pIC50: "NC(=O)c1nnc(N[C@@H]2CCCC[C@@H]2N)nc1Nc1cc(F)cc(F)c1"
a: 8.00 to 9.00

* * *

Target: full length active recombinant SYK enzyme (Homo sapiens, UniProt P43405)
Construct: full length active recombinant SYK enzyme (Millipore, Calif.)
Assay: Inhibition of Syk tyrosine phosphorylation activity (LANCE TR-FRET kinase assay)
Conditions: 1 nM active SYK enzyme, 550 nM SYK-substrate, 100 μM ATP, 1 hour at room temperature
pIC50: −log10 of the molar value.
Each item that follows carries a reported pIC50.

Sample answers from the record:
NC(=O)c1nnc(N[C@@H]2CCCC[C@@H]2N)nc1Nc1ccccc1 [Example 69] :: 8.00 to 9.00
NC(=O)c1nnc(N[C@@H]2CCCC[C@@H]2N)nc1Nc1cnc2ccccc2c1 [Example 58] :: 8.00 to 9.00
CC[C@@H](Nc1nnc(C(N)=O)c(Nc2ccc3ccn(C)c3c2)n1)C(N)=O [Example 163] :: 7.00 to 8.00

q: Give pIC50 (full length active recombinant SYK enzyme (Homo sapiens, UniProt P43405)) of the following molecule: N#Cc1ccc(Nc2nc(N[C@@H]3CCCC[C@@H]3N)nnc2C(N)=O)cc1 [Example 75]
a: 7.00 to 8.00

q: Query CC[C@@H](Nc1nnc(C(N)=O)c(Nc2ccc(Cl)c(Cl)c2)n1)C(N)=O [Example 235] next
a: 7.00 to 8.00

q: Query Cc1ccc(Nc2nc(N[C@H](CC(C)C)C(N)=O)nnc2C(N)=O)cc1 [Example 121] next
a: 7.00 to 8.00

q: Query Cn1ccc2c(Nc3nc(N[C@@H]4CCOC[C@@H]4N)nnc3C(N)=O)cccc21 [Example 82] next
a: 8.00 to 9.00

q: Query NC(=O)c1nnc(N[C@@H]2CCCC[C@@H]2N)nc1Nc1cc(Cl)c2ncccc2c1 [Example 176] next
a: > 9.00

* * *

Biological target: full length active recombinant SYK enzyme (Homo sapiens)
Construct: full length active recombinant SYK enzyme (Millipore, Calif.)
Test: Inhibition of Syk tyrosine phosphorylation activity (LANCE TR-FRET kinase assay)
Conditions: 1 nM active SYK enzyme, 550 nM SYK-substrate, 100 μM ATP, 1 hour at room temperature
pIC50: −log10 of the molar value.
Each item that follows carries a reported pIC50.

Sample answers from the record:
Cc1ccc(Nc2nc(N[C@H](CC(F)(F)F)C(N)=O)nnc2C(N)=O)cc1 [Example 144] :: 7.00 to 8.00
NC(=O)c1nnc(N[C@@H]2CCCC[C@@H]2N)nc1Nc1ccc(N2CCOCC2)c(F)c1 [Example 30] :: 8.00 to 9.00
NC(=O)c1nnc(N[C@@H]2CCOC[C@@H]2N)nc1Nc1cccc(-c2ncccn2)c1 [Example 71] :: 7.00 to 8.00

q: Give pIC50 (full length active recombinant SYK enzyme (Homo sapiens)) of the following compound: CC[C@@H](Nc1nnc(C(N)=O)c(Nc2cccc(C#N)c2)n1)C(N)=O [Example 73]
a: 6.00 to 7.00
